tested on: Mus musculus; test: Anticonvulsant activity in albino Carworth Farms No.1 mouse assessed as protection against subcutaneous dosed pentetrazol-induced seizures at 300 mg/kg, ip after 0.5 hrs; format: functional, organism-based
Activity calls are given as the source filed them. The rule behind the calls is not given here.
Labels: TRUE = active, FALSE = inactive

                                    compound  class_assignment
 0              CC(C)(CO)NC(=O)/C=C/c1ccccc1              TRUE
 1                CC(=O)CNC(=O)/C=C/c1ccccc1             FALSE
 2      CCC(O)CNC(=O)/C=C/c1ccccc1 (racemic)              TRUE
 3  CC(=O)OC(C)CNC(=O)/C=C/c1ccccc1 (racemic)              TRUE
 4   CC(C)C(CO)NC(=O)/C=C/c1ccccc1 (racemic)             FALSE
 5      CCC(CO)NC(=O)/C=C/c1ccccc1 (racemic)              TRUE
 6  COC(=O)C(NC(=O)/C=C/c1ccccc1)C(C)C (racemic)             FALSE
 7  CCC(COC(C)=O)NC(=O)/C=C/c1ccccc1 (centres undefined)             FALSE
 8       CC(O)CNC(=O)/C=C/c1ccccc1 (racemic)              TRUE
 9                 O=C(/C=C/c1ccccc1)NCCCCCO             FALSE
10             O=C(/C=C/c1ccccc1)N1CCC(O)CC1              TRUE
11  CC(=O)OCC(C)NC(=O)/C=C/c1ccccc1 (racemic)             FALSE
12       CC(CO)NC(=O)/C=C/c1ccccc1 (racemic)              TRUE
13  O=C(/C=C/c1ccccc1)N[C@H]1CCCC[C@@H]1O (racemic)             FALSE

---

assay: Neurotoxicity in po dosed Sprague-Dawley rat after 1 hr by rotarod test; format: toxicity, organism-based; conditions: in vivo
measured-parameter: TD50 at 1 h

                              molecule  value_measured
0  CC(CO)NC(=O)/C=C/c1ccccc1 (racemic)     > 250 mg/kg

---

tested on: Mus musculus; assay: Neurotoxicity in albino Carworth Farms No.1 mouse at 300 mg/kg, ip after 4 hrs by rotarod test; format: toxicity, organism-based; settings: in vivo
measured-parameter: Activity

>>> df
                                   compound  value_measured
0                 O=C(/C=C/c1ccccc1)NCCCCCO       Non-toxic
1  O=C(/C=C/c1ccccc1)N[C@H]1CCCC[C@@H]1O (racemic)           Toxic
2  COC(=O)C(NC(=O)/C=C/c1ccccc1)C(C)C (racemic)       Non-toxic
3  CC(=O)OC(C)CNC(=O)/C=C/c1ccccc1 (racemic)       Non-toxic
4  CC(NC(=O)/C=C/c1ccccc1)C(=O)NCN1CCCCC1 (racemic)       Non-toxic
5                CC(=O)CNC(=O)/C=C/c1ccccc1       Non-toxic

---

assay: Lipophilicity of the compound using 90% methanol in water at 1 mg/ml by RT-TLC analysis; assay type: physicochemical; settings: buffer
measured-parameter: Rm

In [3]: df
Out[3]:
                                    molecule  measured_parameter  value_measured
 0  CCC(COC(C)=O)NC(=O)/C=C/c1ccccc1 (stereo not given)                  Rm           -0.43
 1   CC(C)C(CO)NC(=O)/C=C/c1ccccc1 (racemic)                  Rm           -0.45
 2  COC(=O)C(NC(=O)/C=C/c1ccccc1)C(C)C (racemic)                  Rm           -0.31
 3       CC(CO)NC(=O)/C=C/c1ccccc1 (racemic)                  Rm            -0.6
 4                CC(=O)CNC(=O)/C=C/c1ccccc1                  Rm           -0.52
 5             O=C(/C=C/c1ccccc1)N1CCC(O)CC1                  Rm           -0.48
 6                 O=C(/C=C/c1ccccc1)NCCCCCO                  Rm           -0.52
 7      CCC(CO)NC(=O)/C=C/c1ccccc1 (racemic)                  Rm           -0.55
 8              CC(C)(CO)NC(=O)/C=C/c1ccccc1                  Rm            -0.5
 9  CC(=O)OCC(C)NC(=O)/C=C/c1ccccc1 (racemic)                  Rm           -0.48
10  O=C(/C=C/c1ccccc1)N[C@H]1CCCC[C@@H]1O (racemic)                  Rm           -0.43
11       CC(O)CNC(=O)/C=C/c1ccccc1 (racemic)                  Rm           -0.58
12      CCC(O)CNC(=O)/C=C/c1ccccc1 (racemic)                  Rm           -0.52
13  CC(=O)OC(C)CNC(=O)/C=C/c1ccccc1 (racemic)                  Rm           -0.48
14  CC(NC(=O)/C=C/c1ccccc1)C(=O)NCN1CCCCC1 (racemic)                  Rm           -0.27
